Here the recorded cell viability is given for each entry.
test system: KCL-22; assay: cell viability (% survival relative to DMSO control, bortezomib = 0%); higher = less cytotoxic; settings: 1000 nM; 72 h
Structures can show the parent of a compound that is named as a salt.
Output spec: scalar in %, unitless text.

N#C/C(=C\c1ccc(O)cc1)C(=O)O [alpha-cyano-4-hydroxycinnamic acid]: 94
N[C@@H](CC(=O)N1CCn2c(nnc2C(F)(F)F)C1)Cc1cc(F)c(F)cc1F [Sitagliptin]: 94.4
CCN(CCO)CCCC(C)Nc1ccnc2cc(Cl)ccc12 (stereo unspecified) [Hydroxychloroquine sulfate]: 119
O=c1cc(-c2ccccc2)oc2c1ccc1ccccc12 [Alpha-Naphtoflavone]: 85.8
CCCCCN(C)CCC(O)(P(=O)(O)O)P(=O)(O)O [Ibandronate]: 99.8

Would you mind telling me what cell viability value was observed for CN1CCN(CCCN2c3ccccc3Sc3ccc(C(F)(F)F)cc32)CC1 [Trifluoperazine] ?
78.1

Data origin: the supplement of paper PMC8671470
